- tgt: G protein-coupled receptor kinase 5 (Homo sapiens)
- Sequence (P34947 whole entry): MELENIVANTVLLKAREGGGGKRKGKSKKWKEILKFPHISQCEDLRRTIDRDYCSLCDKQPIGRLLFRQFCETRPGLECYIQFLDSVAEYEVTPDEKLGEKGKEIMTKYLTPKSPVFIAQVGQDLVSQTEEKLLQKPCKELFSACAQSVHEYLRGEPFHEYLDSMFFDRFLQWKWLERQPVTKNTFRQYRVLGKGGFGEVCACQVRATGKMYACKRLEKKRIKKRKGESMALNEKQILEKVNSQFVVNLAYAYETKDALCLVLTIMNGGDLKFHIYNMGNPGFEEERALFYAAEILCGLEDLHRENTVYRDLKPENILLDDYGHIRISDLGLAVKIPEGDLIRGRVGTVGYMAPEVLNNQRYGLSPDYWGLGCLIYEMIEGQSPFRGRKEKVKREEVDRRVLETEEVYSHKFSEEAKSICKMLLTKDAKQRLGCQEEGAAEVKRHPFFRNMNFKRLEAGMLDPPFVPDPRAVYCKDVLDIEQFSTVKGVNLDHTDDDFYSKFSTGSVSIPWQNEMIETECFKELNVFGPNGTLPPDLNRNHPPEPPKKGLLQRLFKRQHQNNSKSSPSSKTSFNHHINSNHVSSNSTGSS
- assay.summary: Inhibition of human GRK5 using tubulin as substrate measured after 4 hrs by [gamma-32P]-ATP assay
experimental.readout: IC50 (µM)

P: CNC(=O)c1ccccc1Nc1nc(Nc2cc(CNC(=O)/C=C/CN(C)C)ccc2OC)nc2[nH]ccc12
Q: C=CS(=O)(=O)NCc1ccc(OC)c(Nc2nc(Nc3ccccc3C(=O)NC)c3cc[nH]c3n2)c1
Please choose the item with the lower IC50 value from this pair: P and Q State your choice using its label.
P

* * *

- tgt: Beta-adrenergic receptor kinase 1 (Bos taurus, UniProt P21146)
- Sequence (P21146 whole entry): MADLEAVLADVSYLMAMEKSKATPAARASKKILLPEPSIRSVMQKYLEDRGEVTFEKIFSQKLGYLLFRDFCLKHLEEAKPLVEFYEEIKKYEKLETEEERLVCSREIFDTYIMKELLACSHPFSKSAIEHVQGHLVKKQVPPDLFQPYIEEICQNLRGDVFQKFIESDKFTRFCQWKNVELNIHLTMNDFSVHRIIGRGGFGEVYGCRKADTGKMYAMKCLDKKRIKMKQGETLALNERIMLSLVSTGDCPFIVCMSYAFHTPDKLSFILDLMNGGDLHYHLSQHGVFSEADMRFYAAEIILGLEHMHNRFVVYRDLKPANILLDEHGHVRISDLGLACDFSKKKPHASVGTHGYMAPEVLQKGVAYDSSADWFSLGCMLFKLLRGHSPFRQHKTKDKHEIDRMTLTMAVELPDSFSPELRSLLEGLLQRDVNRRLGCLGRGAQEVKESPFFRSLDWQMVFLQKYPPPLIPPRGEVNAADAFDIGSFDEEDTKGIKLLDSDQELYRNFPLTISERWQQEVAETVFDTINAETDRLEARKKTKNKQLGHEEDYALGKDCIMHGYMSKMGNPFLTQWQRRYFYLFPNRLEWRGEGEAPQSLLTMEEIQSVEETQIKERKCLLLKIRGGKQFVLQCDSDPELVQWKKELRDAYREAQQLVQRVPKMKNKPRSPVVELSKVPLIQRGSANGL
experimental.readout: IC50 (µM)

smiles.entry | tgt | numeric.result
C=CC(=O)NCc1ccc(OC)c(Nc2nc(Nc3ccccc3C(=O)NC)c3cc[nH]c3n2)c1 | Beta-adrenergic receptor kinase 1 (Bos taurus, UniProt P21146) | 3.2
CNC(=O)c1ccccc1Nc1nc(Nc2cc(CNC(=O)/C=C/CN(C)C)ccc2OC)nc2[nH]ccc12 | Beta-adrenergic receptor kinase 1 (Bos taurus, UniProt P21146) | 2.1
CCC(=O)NCc1ccc(OC)c(Nc2nc(Nc3ccccc3C(=O)NC)c3cc[nH]c3n2)c1 | Beta-adrenergic receptor kinase 1 (Bos taurus, UniProt P21146) | 2.9
COc1ccc(NC(=O)/C=C/CN(C)C)cc1Nc1nc(Nc2ccccc2C(N)=O)c2cc[nH]c2n1 | Beta-adrenergic receptor kinase 1 (Bos taurus, UniProt P21146) | 2.7

* * *

- tgt: Rhodopsin kinase GRK1 (Bos taurus, UniProt P28327)
- Sequence (P28327 whole entry): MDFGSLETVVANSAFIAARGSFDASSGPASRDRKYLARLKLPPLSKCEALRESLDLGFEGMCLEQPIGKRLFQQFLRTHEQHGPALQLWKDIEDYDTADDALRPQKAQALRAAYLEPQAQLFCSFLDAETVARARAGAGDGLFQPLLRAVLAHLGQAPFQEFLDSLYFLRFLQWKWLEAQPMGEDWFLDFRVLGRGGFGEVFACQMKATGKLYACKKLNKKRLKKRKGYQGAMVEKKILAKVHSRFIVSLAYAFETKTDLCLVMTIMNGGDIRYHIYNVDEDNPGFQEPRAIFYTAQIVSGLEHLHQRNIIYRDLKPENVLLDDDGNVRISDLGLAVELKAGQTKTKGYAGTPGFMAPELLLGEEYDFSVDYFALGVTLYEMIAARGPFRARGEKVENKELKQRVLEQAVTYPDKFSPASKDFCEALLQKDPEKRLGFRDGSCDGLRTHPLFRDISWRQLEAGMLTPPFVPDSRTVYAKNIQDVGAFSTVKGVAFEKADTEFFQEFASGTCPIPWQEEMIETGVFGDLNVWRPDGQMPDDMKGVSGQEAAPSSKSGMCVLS
- assay.summary: Inhibition of bovine GRK1 using tubulin as substrate measured after 4 hrs by [gamma-32P]-ATP assay
experimental.readout: IC50 (nM)

P: COc1cc(NC(=O)/C=C/CN(C)C)ccc1Nc1nc(Nc2ccccc2C(N)=O)c2cc[nH]c2n1
Q: COc1ccc(NC(=O)/C=C/CN(C)C)cc1Nc1nc(Nc2ccccc2C(N)=O)c2cc[nH]c2n1
# returns the entry with the larger IC50; inputs P and Q Provide the label of your selected option as the answer.
Q

* * *

- tgt: UniProt:P34947
- assay.summary: Displacement of BODIPY TR-ADP from GRK5 (unknown origin) preincubated for 10 mins followed by compound addition and measured after 10 to 15 mins by fluorescence polarization displacement assay
experimental.readout: IC50 (µM)

compound | tgt | IC50 / µM
COc1cc2c(cc1Nc1nc(Nc3ccsc3C(N)=O)c3cc[nH]c3n1)N(C(=O)CN(C)C)CCC2(C)C [GSK-2163632A] | UniProt:P34947 | 3.2
CCCN1CCC(Oc2cc(Nc3nc(Nc4cccc(F)c4C(N)=O)c4cc[nH]c4n3)c(OC)cc2Cl)CC1 [GSK-1713088A] | UniProt:P34947 | 3.2
CCCN1CCC(c2ccc(Nc3nc(Nc4cc(F)ccc4C(N)=O)c4cc[nH]c4n3)c(OC)c2)CC1 [GSK-1326255A] | UniProt:P34947 | 2.5

* * *

- tgt: G protein-coupled receptor kinase 5 (Homo sapiens)
- assay.summary: Inhibition of human GRK5 using tubulin as substrate measured after 4 hrs by [gamma-32P]-ATP assay
Recorded measurements of IC50, one per entry

Given the compound CCC(=O)NCc1ccc(OC)c(Nc2nc(Nc3ccccc3C(=O)NC)c3cc[nH]c3n2)c1 , what is its reported IC50?
> 100 µM

One more compound: CCC(=O)NCc1ccc(Nc2nc(Nc3ccccc3C(=O)NC)c3cc[nH]c3n2)c(OC)c1
> 100 µM

// next record CC#CC(=O)NCc1ccc(OC)c(Nc2nc(Nc3ccccc3C(=O)NC)c3cc[nH]c3n2)c1
> 100 µM
